- Tested on: E. coli CS1562
- Test summary: Antibacterial activity assay (MIC, bacterial growth curves)
- Assay type: cell-based, Escherichia coli
- Experimental conditions: Escherichia coli; dark; E. coli CS1562, 24 h; read-out: MIC Dark
Result type: MIC (µM)
Give bare numbers, in µM.

Before answering, review these 3 worked examples.
1. COC(C)(C#Cc1cnc(N)nc1N)c1ccc(/N=N/c2ccc(Cl)c(C(=O)O)c2)cc1 (stereo not shown) [Compound 13]	40
2. COC(C)(C#Cc1cnc(N)nc1N)c1cccc(/N=N/c2ccccc2)c1 (stereo not shown) [Compound 7]	20
3. COC(C)(C#Cc1cnc(N)nc1N)c1ccc(/N=N/c2ccc(C(=O)O)c(C)c2)cc1 (stereo not shown) [Compound 14]	20

Kindly consider the entry below.
// query Recorded MIC for COC(C)(C#Cc1cnc(N)nc1N)c1ccc(/N=N/c2ccc(C(=O)O)c(Cl)c2)cc1 (stereo not shown) [Compound 15] , please?
// result 40

---

- System tested: eDHFR (Escherichia coli, UniProt P0ABQ4)
- Construct: made in house; host or cells: E. cloni EXPRESS BL21 (DE3) cells (Lucigen), pT7-SC1 plasmid
- Sequence (P0ABQ4 whole entry): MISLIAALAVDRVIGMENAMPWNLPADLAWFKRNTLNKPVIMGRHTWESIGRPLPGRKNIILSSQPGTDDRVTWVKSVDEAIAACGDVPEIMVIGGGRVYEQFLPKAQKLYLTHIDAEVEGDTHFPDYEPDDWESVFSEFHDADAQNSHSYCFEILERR
- Test summary: biochemical
- Experimental conditions: after irradiation; read-out: DHFR inhibition IC50 (nM) after irradiation
Result type: IC50

Before answering, review these 5 worked examples.
1) Nc1ncc(-c2ccc(/N=N/c3ccccc3)cc2)c(N)n1	> 10000 nM
2) COC(C)(C#Cc1cnc(N)nc1N)c1ccc(/N=N/c2ccc(C(=O)O)c(C)c2)cc1 (centres unmarked)	37 nM
3) COC(C)(C#Cc1cnc(N)nc1N)c1cccc(/N=N/c2ccccc2)c1 (centres unmarked)	250 nM
4) COC(C)(C#Cc1cnc(N)nc1N)c1ccc(/N=N/c2ccccc2)cc1 (centres unmarked)	160 nM
5) COc1cc(Cc2cnc(N)nc2N)cc(OC)c1OCc1cc(Cl)c(/N=N/c2c(Cl)cccc2Cl)c(Cl)c1 [TCAT, reference compound]	3.3 nM

Hello, I would appreciate it if you could give IC50 for each entry below.
1. COC(C)(C#Cc1cnc(N)nc1N)c1ccc(/N=N/c2c(C)nn(C)c2C)cc1 (centres unmarked)
2. COC(C)(C#Cc1cnc(N)nc1N)c1ccc(/N=N/c2ccc(C)c(C(=O)O)c2)cc1 (centres unmarked)
3. COc1cc(Cc2cnc(N)nc2N)cc(OC)c1OCc1cc(F)c(/N=N/c2c(F)cccc2F)c(F)c1 [TFAT, reference compound]

// result
1. 640 nM
2. 71 nM
3. 1.7 nM

---

- System tested: eDHFR (Escherichia coli, UniProt P0ABQ4);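 also: purified E. coli DHFR colorimetric assay, enzyme with NADPH 3 min then inhibitor (10^-12 to 10^-5 M) 7 min, rate ΔAbs/s relative to DMSO control (1% v/v), triplicates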
- Construct: made in house; host or cells: E. cloni EXPRESS BL21 (DE3) cells (Lucigen), pT7-SC1 plasmid
- Test summary: biochemical
- Experimental conditions: irradiated to PSS with λ1 (340 nm for 3, 365 nm for 6-15); read-out: IC50 Light
pIC50: −log10 of the molar value.
Use criterion met when the recorded pIC50 is no lower than 7; use criterion not met when it is lower.

Below are worked cases with known answers.
1. COc1ccc(/N=N/c2ccc(C(C)(C#Cc3cnc(N)nc3N)OC)cc2)cc1 (stereo not shown)	criterion not met
2. Nc1ncc(-c2cccc(/N=N/c3ccccc3)c2)c(N)n1	criterion not met
3. COc1ccc(/N=N/c2ccc(COc3c(OC)cc(Cc4cnc(N)nc4N)cc3OC)cc2)cc1 [PMAT, para-methoxyazobenzene trimethoprim, reference compound]	criterion met
4. COC(C)(C#Cc1cnc(N)nc1N)c1ccc(/N=N/c2cccc(C(=O)O)c2)cc1 (stereo not shown)	criterion met

Would you kindly look at the next entry?
// query Kindly determine if pIC50 recorded for COC(C)(C#Cc1cnc(N)nc1N)c1ccc(/N=N/c2ccc(C(=O)O)c(Cl)c2)cc1 (stereo not shown) is above or exactly 7.
// result criterion met

Ref: paper PMC8958501
